- assay-name: AUC in leukemic patient with pulmonary aspergillosis at 200 mg twice daily, po on day 7
- Assay type: ADME, organism-based
- test-settings: human, plasma
reported-endpoint: AUC (ng·h/mL)
Respond with the bare value in ng·h/mL.

## Input Specify AUC for C[C@@H](c1ncncc1F)[C@](O)(Cn1cncn1)c1ccc(F)cc1F and stop.
## Output 12900

###

- assay-name: Cmax in leukemic neutropenic patient with pulmonary aspergillosis at 300 mg twice daily, po
- Type: ADME, organism-based
- Design: dose 300 mg, route oral
- test-settings: human, in vivo
reported-endpoint: Cmax (ng/mL)
Respond with the bare value in ng/mL.

## Input Specify Cmax for C[C@@H](c1ncncc1F)[C@](O)(Cn1cncn1)c1ccc(F)cc1F [VORICONAZOLE] and stop.
## Output 4300

###

- assay-name: Cmax in patient with invasive mycoses on day 1
- Assay type: ADME, organism-based
- test-settings: human, in vivo
reported-endpoint: Cmax
Record the result as number plus unit.

## Input Specify Cmax for C[C@@H](c1ncncc1F)[C@](O)(Cn1cncn1)c1ccc(F)cc1F [VORICONAZOLE] and stop.
## Output 6000 ng/mL
